- study system: human kinase Mps-1 (Homo sapiens, UniProt P33981)
- Construct: N-terminally GST-tagged human full length recombinant Mps-1 kinase
- Sequence (P33981 1-857): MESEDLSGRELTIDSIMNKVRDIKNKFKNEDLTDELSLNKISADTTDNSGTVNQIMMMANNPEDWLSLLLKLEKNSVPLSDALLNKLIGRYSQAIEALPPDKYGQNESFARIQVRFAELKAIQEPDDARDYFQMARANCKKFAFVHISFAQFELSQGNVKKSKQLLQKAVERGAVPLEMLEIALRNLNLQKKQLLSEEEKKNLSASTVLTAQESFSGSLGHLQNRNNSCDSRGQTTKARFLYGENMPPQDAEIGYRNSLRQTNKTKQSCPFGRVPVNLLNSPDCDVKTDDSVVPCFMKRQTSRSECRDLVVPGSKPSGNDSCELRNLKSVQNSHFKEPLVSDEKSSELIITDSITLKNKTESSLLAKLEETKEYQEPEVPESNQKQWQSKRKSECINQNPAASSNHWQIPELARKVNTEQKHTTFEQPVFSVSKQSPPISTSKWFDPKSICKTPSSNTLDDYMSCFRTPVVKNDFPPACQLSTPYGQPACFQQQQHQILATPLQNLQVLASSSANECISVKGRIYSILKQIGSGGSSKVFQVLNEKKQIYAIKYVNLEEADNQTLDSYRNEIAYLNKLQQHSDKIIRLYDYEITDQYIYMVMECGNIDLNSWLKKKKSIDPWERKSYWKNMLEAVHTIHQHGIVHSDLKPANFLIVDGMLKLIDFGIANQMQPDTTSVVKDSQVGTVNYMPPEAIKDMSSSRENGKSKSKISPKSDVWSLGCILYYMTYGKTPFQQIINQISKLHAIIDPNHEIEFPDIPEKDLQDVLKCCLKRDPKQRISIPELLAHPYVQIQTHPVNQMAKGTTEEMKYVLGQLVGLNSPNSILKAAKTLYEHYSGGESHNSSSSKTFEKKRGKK
- experimental details: Mps-1 kinase assay (HTRF)
- experimental conditions: lowATP; mean; read-out: Mps1 lowATP mean IC50
parameter measured: pIC50
Please treat pIC50 as minus the base-10 logarithm of the molar concentration.

* CNC(=O)Nc1ccc(-c2cnc3c(NCc4cccnc4)nc4cc(C#N)ccc4n23)cc1 [Example 2-230] | 5.85
* COCCNc1nc2cc(F)c(F)cc2n2c(-c3ccc(C(=O)NC4CC4)cc3)cnc12 [Example 2-94] | 6.79

Query CC(=O)Nc1cccc(NC(=O)c2ccc(-c3cnc4c(NCC(C)C)nc5ccccc5n34)cc2)c1 [Example 3-14] yields pIC50 of 6.20

Query O=C(NC1CC1)c1ccc(-c2cnc3c(NCCc4cccc(F)c4)nc4ccccc4n23)cc1 [Example 2-22] yields pIC50 of 6.51

Query CC(C)CNc1nc2ccccc2n2c(-c3ccc(C(=O)NCCc4ccncc4)cc3)cnc12 [Example 3-16] yields pIC50 of 5.23

Query CC(C)CNc1nc2ccccc2n2c(-c3ccc(C(=O)NCC(N)=O)cc3)cnc12 [Example 3-12] yields pIC50 of 5.82

Query CNC(=O)Nc1ccc(-c2cnc3c(NCc4cccnc4)nc4cc(F)c(F)cc4n23)cc1 [Example 2-122] yields pIC50 of 5.39

Query Cc1ccc(-c2cnc3c(NCC(C)C)nc4ccccc4n23)s1 [Example 1-38] yields pIC50 of 5.22

Query CCN(CC)C(=O)c1ccc(-c2cnc3c(NCC(C)C)nc4ccccc4n23)cc1 [Example 3-3] yields pIC50 of 4.70

Query N#Cc1ccc2c(c1)nc(NCCCN1CCCC1=O)c1ncc(-c3ccc(C(=O)NC4CC4)cc3)n12 [Example 2-207] yields pIC50 of 6.71

----------
- study system: human kinase Mps-1 (Homo sapiens, UniProt P33981)
- Construct: N-terminally GST-tagged human full length recombinant Mps-1 kinase
- Sequence (P33981 1-857): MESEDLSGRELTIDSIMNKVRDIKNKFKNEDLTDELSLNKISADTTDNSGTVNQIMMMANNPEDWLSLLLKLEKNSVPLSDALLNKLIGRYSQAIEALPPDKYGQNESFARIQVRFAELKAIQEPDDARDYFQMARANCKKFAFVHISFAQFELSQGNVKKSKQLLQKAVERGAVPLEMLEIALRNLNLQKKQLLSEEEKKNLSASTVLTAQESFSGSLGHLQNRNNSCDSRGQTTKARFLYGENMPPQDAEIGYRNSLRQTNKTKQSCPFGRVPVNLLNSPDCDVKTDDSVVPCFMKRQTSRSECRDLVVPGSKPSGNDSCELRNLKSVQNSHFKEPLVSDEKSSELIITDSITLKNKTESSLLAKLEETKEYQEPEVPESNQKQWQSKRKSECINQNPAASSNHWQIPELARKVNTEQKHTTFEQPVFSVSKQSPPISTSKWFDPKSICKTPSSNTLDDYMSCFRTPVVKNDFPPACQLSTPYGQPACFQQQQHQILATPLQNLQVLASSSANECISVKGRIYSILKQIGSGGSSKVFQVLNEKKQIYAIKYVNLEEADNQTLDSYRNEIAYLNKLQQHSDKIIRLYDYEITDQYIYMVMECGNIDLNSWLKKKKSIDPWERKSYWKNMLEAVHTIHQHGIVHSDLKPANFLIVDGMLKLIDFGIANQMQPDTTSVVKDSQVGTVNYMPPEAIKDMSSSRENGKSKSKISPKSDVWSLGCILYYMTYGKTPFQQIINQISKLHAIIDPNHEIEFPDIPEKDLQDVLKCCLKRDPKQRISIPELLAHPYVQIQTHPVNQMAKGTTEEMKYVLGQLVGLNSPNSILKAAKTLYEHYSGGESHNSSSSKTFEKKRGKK
- experimental details: Mps-1 kinase assay (HTRF)
- experimental conditions: lowATP; mean; read-out: Mps1 lowATP mean IC50
parameter measured: IC50 (µM)
All answers are understood in µM, so give the number only.

- CC(=O)c1ccc(-c2cnc3c(NCC(C)C)nc4ccccc4n23)cc1 [Example 1-24]: 2.6
- N#Cc1ccc2c(c1)nc(NCc1ccncc1)c1ncc(-c3ccc(C(=O)NC4CC4)c(Cl)c3)n12 [Example 2-246]: 1.3
- COCCCNc1nc2cc(C#N)ccc2n2c(-c3ccc(C(=O)NC4CC4)c(Cl)c3)cnc12 [Example 2-249]: 2.4

Now look at this entry.
Query O=C(NC1CC1)c1ccc(-c2cnc3c(NCCCN4CCCC4=O)nc4ccc(F)cc4n23)cc1Cl [Example 2-77] yields IC50 of 10.1

----------
- study system: human kinase Mps-1 (Homo sapiens)
- Construct: N-terminally GST-tagged human full length recombinant Mps-1 kinase
- Sequence (P33981 1-857): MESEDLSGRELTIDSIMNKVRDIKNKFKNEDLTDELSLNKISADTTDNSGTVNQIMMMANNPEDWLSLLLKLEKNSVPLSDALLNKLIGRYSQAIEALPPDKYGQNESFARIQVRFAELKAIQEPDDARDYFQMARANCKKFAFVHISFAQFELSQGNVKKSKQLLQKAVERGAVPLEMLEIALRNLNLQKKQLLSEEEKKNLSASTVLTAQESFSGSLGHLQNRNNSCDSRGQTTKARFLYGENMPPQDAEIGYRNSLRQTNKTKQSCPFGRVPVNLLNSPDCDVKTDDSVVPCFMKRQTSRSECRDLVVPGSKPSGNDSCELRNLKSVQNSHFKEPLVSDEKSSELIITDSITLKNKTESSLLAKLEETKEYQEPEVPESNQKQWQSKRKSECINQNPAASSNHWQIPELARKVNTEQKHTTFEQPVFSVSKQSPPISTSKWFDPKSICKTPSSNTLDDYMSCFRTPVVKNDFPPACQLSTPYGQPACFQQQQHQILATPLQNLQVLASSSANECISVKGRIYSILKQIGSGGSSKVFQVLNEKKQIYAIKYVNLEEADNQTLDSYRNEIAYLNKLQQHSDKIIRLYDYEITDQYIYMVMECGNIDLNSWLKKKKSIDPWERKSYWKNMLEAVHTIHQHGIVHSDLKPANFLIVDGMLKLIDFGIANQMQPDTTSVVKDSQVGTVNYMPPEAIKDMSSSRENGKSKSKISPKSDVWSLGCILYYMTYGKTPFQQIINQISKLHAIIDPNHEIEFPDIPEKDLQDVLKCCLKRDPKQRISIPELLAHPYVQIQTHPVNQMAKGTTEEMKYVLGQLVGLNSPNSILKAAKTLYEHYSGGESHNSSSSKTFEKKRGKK
- experimental details: Mps-1 kinase assay (HTRF)
- experimental conditions: lowATP; mean; read-out: Mps1 lowATP mean IC50
parameter measured: IC50 (nM)
All answers are understood in nM, so give the number only.

• Cn1cc(CNc2nc3cc(C#N)ccc3n3c(-c4ccc(C(=O)NC5CC5)c(Cl)c4)cnc23)cn1 = 1220
• N#Cc1ccc2c(c1)nc(NCc1cccnc1)c1ncc(-c3ccc(C(=O)NC4CC4)cc3)n12 = 28.8

Query `O=C(NC1CC1)c1ccc(-c2cnc3c(NCCO)nc4ccccc4n23)cc1` yields IC50 of 113

Query `Cc1cccc(CNc2nc3ccccc3n3c(-c4ccc(C(=O)NC5CC5)cc4)cnc23)c1` yields IC50 of 132

Source of measurements: patent US8729082B2
